Where do these numbers come from? They come from patent US11332459B2.

Below is a list of entries, each paired with its recorded pIC50 value.
SYSTEM: human TRPC6 (Homo sapiens, UniProt Q9Y210)
Construct: expressed in transfected cells
Sequence (Q9Y210 whole entry): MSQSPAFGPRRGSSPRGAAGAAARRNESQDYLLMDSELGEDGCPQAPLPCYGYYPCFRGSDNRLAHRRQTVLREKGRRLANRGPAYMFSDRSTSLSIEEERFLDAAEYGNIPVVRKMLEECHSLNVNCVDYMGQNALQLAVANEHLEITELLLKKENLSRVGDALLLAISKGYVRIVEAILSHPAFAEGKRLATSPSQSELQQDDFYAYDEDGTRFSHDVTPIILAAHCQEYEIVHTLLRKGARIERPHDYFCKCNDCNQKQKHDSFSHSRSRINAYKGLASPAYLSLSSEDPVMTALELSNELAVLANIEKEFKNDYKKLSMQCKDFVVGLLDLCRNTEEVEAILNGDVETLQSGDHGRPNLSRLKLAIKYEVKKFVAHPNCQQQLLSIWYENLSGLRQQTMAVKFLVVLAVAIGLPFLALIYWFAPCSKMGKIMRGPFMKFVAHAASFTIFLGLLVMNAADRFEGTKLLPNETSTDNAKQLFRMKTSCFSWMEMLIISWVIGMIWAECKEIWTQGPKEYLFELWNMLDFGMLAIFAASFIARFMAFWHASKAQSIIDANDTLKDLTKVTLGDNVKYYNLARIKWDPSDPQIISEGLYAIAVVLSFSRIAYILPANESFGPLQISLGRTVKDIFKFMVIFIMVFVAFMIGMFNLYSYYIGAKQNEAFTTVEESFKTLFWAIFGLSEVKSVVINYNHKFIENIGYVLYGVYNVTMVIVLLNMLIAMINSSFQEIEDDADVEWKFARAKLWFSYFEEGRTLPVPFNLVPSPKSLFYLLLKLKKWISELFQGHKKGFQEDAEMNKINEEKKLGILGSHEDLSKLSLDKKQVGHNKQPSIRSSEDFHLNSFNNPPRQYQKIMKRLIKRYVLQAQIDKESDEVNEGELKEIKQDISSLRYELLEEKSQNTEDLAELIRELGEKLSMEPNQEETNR
MEASUREMENT PROTOCOL: TRPC6 calcium flux assay (FLIPR, OAG-stimulated calcium influx)
Assay type: cell-based
CONDITION PARAMETERS: HEK293 cells stably transfected with human TRPC6, read-out: hTRPC6 Potency
pIC50: −log10 of the molar value. Structures can show the parent of a compound that is named as a salt.
READOUT TYPE: pIC50

1) COc1ccc2c(c1)nc(N1CC[C@@H](F)[C@H](N)C1)n2CC(=O)N(C)CC(F)(F)F ... 5.94
2) COc1ccc2c(c1)nc(N1CCC[C@H](N)C1)n2Cc1ccc(C#N)cn1 [Example 143, 2,2,2-trifluoroacetate] ... 8.16
3) N[C@@H]1CN(c2nc3cc(F)c(F)cc3n2CC(=O)N2CC3(C2)CC(F)(F)C3)CC[C@H]1F ... 6.06
4) C[C@]1(N)CCCN(c2nc3ccccc3n2Cc2ccc(C#N)cn2)C1 ... 7.87
5) N[C@@H]1CN(c2nc3cc(F)c(F)cc3n2C2CCCN(c3ccccc3)C2=O)CC[C@H]1F (mixture of isomers) ... 6.25
6) N#Cc1ccc(Cn2c(N3CC[C@@H](F)[C@H](N)C3)nc3cc(C(F)(F)F)c(F)cc32)nc1 ... 9.18
7) N#Cc1ccc(Cn2c(N3CCCC4(CCCN4)C3)nc3ccccc32)nc1 (racemic) ... 7.31
8) CS(=O)(=O)c1ccc2nc(N3CC[C@@H](F)[C@H](N)C3)n(Cc3ccc(Cl)cn3)c2c1 ... 7.35
9) CN(C)C(=O)Cn1c(N2CC[C@@H](F)[C@H](N)C2)nc2ccc(OC(F)(F)F)cc21 ... 6.75
10) N[C@@H]1CN(c2nc3c(F)cc(F)cc3n2Cc2ccc(F)cn2)CC[C@H]1F ... 9.36
11) N#Cc1ccc2c(c1)nc(N1CC[C@@H](F)[C@H](N)C1)n2Cc1ncc(Cl)cn1 ... 7.15
12) N#Cc1ccc(Cn2c(N3CCC[C@H](N)C3)nc3cc(Cl)ccc32)cc1 ... 8.63
13) COc1ccc2c(c1)nc(N1CC[C@H](F)[C@H](N)C1)n2Cc1ccc(C#N)cn1 [Example 148, hydrochloride] ... 7.93
14) N#Cc1ccc(Cn2c(N3C[C@@H](N)[C@H](c4ccccc4)C3)nc3ccccc32)cc1 (racemic) ... 5.69
